Origin of measurements: patent US11034672B1

target: HER2 YVMA (Homo sapiens, UniProt P04626, INS775YVMA); construct: expressed in transfected cells; host or cells: BaF3 (murine pro-B); assay: BaF3 cell proliferation assay, HER2 YVMA (Table B); type: cell-based; conditions: potency code, 3 days, CellTiterGlo, read-out: HER2 YVMA (Activity for Inhibiting HER2)
Sequence (P04626 with tags, fused parts or gaps INS775YVMA): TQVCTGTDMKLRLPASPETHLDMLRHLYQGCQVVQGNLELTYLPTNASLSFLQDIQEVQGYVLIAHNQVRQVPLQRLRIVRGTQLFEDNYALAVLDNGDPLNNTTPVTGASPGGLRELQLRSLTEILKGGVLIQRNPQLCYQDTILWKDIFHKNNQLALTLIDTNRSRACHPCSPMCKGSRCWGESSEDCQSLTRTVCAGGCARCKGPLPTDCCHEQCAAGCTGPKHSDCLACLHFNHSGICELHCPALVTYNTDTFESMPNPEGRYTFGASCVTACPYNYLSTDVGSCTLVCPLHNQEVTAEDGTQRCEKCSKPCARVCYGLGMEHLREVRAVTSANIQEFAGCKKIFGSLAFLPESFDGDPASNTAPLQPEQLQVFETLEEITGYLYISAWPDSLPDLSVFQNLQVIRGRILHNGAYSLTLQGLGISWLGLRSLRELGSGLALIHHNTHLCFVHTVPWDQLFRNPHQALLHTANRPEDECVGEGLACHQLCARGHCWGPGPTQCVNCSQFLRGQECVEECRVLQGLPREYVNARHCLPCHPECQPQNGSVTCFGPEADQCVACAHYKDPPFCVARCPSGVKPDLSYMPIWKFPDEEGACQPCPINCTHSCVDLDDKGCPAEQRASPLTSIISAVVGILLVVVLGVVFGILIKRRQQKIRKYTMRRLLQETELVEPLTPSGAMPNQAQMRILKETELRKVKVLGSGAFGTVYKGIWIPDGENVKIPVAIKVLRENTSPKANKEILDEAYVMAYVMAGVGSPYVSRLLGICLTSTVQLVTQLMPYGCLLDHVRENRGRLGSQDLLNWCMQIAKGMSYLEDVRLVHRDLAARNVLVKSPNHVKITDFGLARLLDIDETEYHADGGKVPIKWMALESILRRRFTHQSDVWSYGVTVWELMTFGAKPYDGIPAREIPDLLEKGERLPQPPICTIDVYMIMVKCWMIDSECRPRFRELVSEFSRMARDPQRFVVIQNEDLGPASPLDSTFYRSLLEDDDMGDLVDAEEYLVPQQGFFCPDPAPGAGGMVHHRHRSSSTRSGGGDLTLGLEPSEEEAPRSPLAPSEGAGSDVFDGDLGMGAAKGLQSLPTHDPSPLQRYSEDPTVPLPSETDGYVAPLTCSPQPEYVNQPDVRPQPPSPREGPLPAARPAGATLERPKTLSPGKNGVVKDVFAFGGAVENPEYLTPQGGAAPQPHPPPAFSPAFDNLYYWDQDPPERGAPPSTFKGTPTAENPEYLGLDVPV
Measured IC50 values are reported for all entries that follow.

>  <COMPOUND>
CC#CC(=O)Nc1cc2c(Nc3ccc(OCc4cccnn4)c(Cl)c3)ncnc2cc1OCCCN1CCOCC1

>  <RESULT>
0.05 to 0.1 µM

$$$$

Task: Given the compound C=CC(=O)Nc1cc2c(Nc3ccc(OCc4ccccn4)c(Cl)c3)ncnc2cc1C#CC(C)(C)N1CCN(C)CC1 , what is its reported IC50?
Result: 0.05 to 0.1 µM

Task: Can you look up the measured IC50 of C=CC(=O)Nc1cc2c(Nc3ccc(OCc4ccccn4)c(Cl)c3)ncnc2cc1N1CCC(N(C)C)CC1 for me?
Result: 0.5 to 1 µM

Task: Data request, read-out IC50, for C=CC(=O)Nc1cc2c(Nc3ccc(OCc4ccccn4)c(Cl)c3)ncnc2cc1OCCN1C2CCC1COC2
Result: 0.1 to 0.2 µM

Task: Fill in the blank: the reported IC50 of C=CC(=O)Nc1cc2c(Nc3ccc(OCc4ccccn4)cc3)ncnc2cc1OCCN1CC2CN(C)CC2C1 (stereo not shown) is ____.
Result: > 1 µM

Task: Fill in the blank: the reported IC50 of C=CC(=O)Nc1cc2c(Nc3ccc(OCc4cnccn4)c(Cl)c3)ncnc2cc1OCCCN1CCOCC1 is ____.
Result: 0.03 to 0.05 µM

Task: Which IC50 is reported for this compound? C=CC(=O)Nc1cc2c(Nc3ccc(OCc4cccc(OC(F)(F)F)n4)c(Cl)c3)ncnc2cc1OCCN1CCOCC1
Result: 0.3 to 0.5 µM

---

molecular target: EGFR WT (Homo sapiens); assay: BaF3 cell proliferation assay, EGFR WT (Table A); assay type: cell-based; settings: potency code, 3 days, CellTiterGlo, read-out: EGFR WT (Activity for Inhibiting EGFR)
Sequence (P00533 25-1210 N540K): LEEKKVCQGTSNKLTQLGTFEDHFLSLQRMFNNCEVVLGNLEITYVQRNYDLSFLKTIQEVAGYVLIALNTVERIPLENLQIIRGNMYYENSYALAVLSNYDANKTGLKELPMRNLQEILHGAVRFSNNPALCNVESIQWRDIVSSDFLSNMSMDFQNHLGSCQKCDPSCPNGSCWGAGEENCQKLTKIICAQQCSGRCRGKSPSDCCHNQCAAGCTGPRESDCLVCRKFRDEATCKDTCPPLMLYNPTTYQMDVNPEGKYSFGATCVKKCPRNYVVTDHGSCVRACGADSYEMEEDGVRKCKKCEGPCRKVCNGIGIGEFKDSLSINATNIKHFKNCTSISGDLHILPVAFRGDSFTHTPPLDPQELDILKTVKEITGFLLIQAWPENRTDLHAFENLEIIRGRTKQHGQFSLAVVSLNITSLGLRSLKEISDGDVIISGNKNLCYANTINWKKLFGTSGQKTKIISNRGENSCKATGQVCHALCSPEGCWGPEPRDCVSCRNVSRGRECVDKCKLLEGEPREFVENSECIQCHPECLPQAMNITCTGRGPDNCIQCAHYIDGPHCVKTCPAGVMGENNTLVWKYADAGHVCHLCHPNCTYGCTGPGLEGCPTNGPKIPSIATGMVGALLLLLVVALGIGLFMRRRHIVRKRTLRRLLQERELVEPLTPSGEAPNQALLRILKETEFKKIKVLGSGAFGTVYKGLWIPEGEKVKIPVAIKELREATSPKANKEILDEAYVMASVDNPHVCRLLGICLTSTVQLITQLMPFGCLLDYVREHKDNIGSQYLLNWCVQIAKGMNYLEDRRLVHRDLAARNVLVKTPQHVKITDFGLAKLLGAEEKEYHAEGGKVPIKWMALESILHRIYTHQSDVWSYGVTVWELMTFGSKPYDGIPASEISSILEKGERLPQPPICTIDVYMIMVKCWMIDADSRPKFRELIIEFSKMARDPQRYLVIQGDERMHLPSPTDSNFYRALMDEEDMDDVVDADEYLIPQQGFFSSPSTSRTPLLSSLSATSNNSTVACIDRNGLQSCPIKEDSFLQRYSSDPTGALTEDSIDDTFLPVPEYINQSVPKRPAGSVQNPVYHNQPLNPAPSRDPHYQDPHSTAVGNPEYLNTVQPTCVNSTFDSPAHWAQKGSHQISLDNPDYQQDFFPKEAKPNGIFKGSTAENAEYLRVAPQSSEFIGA
pIC50: −log10 of the molar value.
REPORTED_METRIC: pIC50

Examples with their reported pIC50 follow.
>  <COMPOUND>
C=CC(=O)Nc1cc2c(Nc3ccc(OCc4ccccn4)c(Cl)c3)ncnc2cc1OCC1CCN1C (stereo not drawn)

>  <RESULT>
6.00 to 6.30

$$$$
>  <COMPOUND>
C=CC(=O)Nc1cc2c(Nc3ccc(OCc4cnccn4)c(Cl)c3)ncnc2cc1OCCN1CCN(C)CC1

>  <RESULT>
6.00 to 6.30

$$$$
>  <COMPOUND>
C=CC(=O)Nc1cc2c(Nc3ccc(OCc4ccccn4)c(Cl)c3)ncnc2cc1OCCN1CCN(C)CC1

>  <RESULT>
6.52 to 6.70

$$$$

Task: Please look up its pIC50: C=CC(=O)Nc1cc2c(Nc3ccc(OCc4ccccn4)c(Cl)c3)ncnc2cc1N1CCN(C)CC1
Result: 6.00 to 6.30

Task: Need pIC50 of C=CC(=O)Nc1cc2c(Nc3cc(Cl)c(OCc4cccc(F)c4)cc3F)ncnc2cc1O[C@@H]1CCN(C)C1 , thanks.
Result: 6.52 to 6.70

Task: Field request: pIC50 | item: CC#CC(=O)Nc1cc2c(Nc3ccc(OCc4ccccn4)c(Cl)c3)ncnc2cc1OCCN1CCN(C)CC1
Result: 7.00 to 7.30

Task: For the compound C=CC(=O)Nc1cc2c(Nc3ccc(OCc4ccccn4)c(Cl)c3)ncnc2cc1OCCN1CC2COCC2C1 (stereo not drawn) , what pIC50 is on record?
Result: 6.00 to 6.30

Task: Look at this compound and give its reported pIC50. C=CC(=O)Nc1cc2c(Nc3ccc(OCc4cccc(F)c4)c(Cl)c3)ncnc2cc1OCCN1CC(OC)C1
Result: 6.52 to 6.70

Task: // query pIC50 value for entry C=CC(=O)Nc1cc2c(Nc3cc(Cl)c(OCc4ccccn4)cc3F)ncnc2cc1OC1CCN(C)C1 (stereo not drawn)
Result: 6.52 to 6.70

Task: Can you look up the measured pIC50 of COC/C=C/C(=O)Nc1cc2c(Nc3ccc(OCc4ccccn4)c(Cl)c3)ncnc2cc1OCCN1CCOCC1 for me?
Result: 6.30 to 6.52

---

target: HER2 YVMA (Homo sapiens, UniProt P04626, INS775YVMA); construct: expressed in transfected cells; host or cells: BaF3 (murine pro-B); experiment: Activity for inhibiting HER2 (Table B), HER2 YVMA; type: cell-based; settings: read-out: HER2 YVMA, potency code (IC50)
Parameter IC50: see the listing below.

Below, 3 molecules whose answers are already recorded.
>  <MOLECULE>
C=CC(=O)Nc1cc2c(Nc3ccc(CC(=O)c4ccccn4)c(Cl)c3)ncnc2cc1O[C@@H]1CCN(C)C1 [compound 121]

>  <REPORTED_METRIC>
IC50

>  <RESULT>
300 to 500 nM

$$$$
>  <MOLECULE>
C=CC(=O)Nc1cc2c(Nc3ccc(OCc4ccccn4)c(Cl)c3)ncnc2cc1C#C[C@@H]1[C@H]2CN(C3COC3)C[C@@H]12 [compound 113]

>  <REPORTED_METRIC>
IC50

>  <RESULT>
100 to 200 nM

$$$$
>  <MOLECULE>
C=CC(=O)Nc1cc2c(Nc3ccc(OCc4ccccn4)c(Cl)c3)ncnc2cc1OCC12CCC(CC1)N2C [compound 122]

>  <REPORTED_METRIC>
IC50

>  <RESULT>
500 to 1000 nM

$$$$

Task: Request the reported IC50 associated with C=CC(=O)Nc1cc2c(Nc3ccc(OCc4ncccn4)c(Cl)c3)ncnc2cc1OCCCN1CCOCC1 [compound 166]
Result: 100 to 200 nM

Task: Would you mind telling me what IC50 value was observed for C=CC(=O)Nc1cc2c(Nc3ccc(OCc4ccccn4)c(Cl)c3)ncnc2cc1C#C[C@H]1CCNC1 [compound 86] ?
Result: 100 to 200 nM

Task: # IC50 lookup, item C=CC(=O)Nc1cc2c(Nc3ccc(OCc4cccc(F)c4)c(Cl)c3)ncnc2cc1OCCCN1C[C@H]2C[C@@H]1CO2 [compound 160]
Result: 300 to 500 nM

Task: What does the data say about its IC50? Entry: CC#CC(=O)Nc1cc2c(Nc3ccc(OCc4cccnn4)c(Cl)c3)ncnc2cc1OCCCN1CCOCC1 [compound 165]
Result: 50 to 100 nM

Task: Returns the measured IC50 for the input molecule. Input: C=CC(=O)Nc1cc2c(Nc3ccc(OCc4ccnc(C)c4)c(Cl)c3)ncnc2cc1OCCN1CCOCC1 [compound 142]
Result: > 1000 nM

---

This section presents compounds with their documented IC50 values.
molecular target: HER2 S310F (Homo sapiens, UniProt P04626, S310F); construct: expressed in transfected cells; host or cells: BaF3 (murine pro-B); assay: BaF3 cell proliferation assay, HER2 S310F (Table B); format: cell-based; conditions: potency code, 3 days, CellTiterGlo, read-out: HER2 S310F (Activity for Inhibiting HER2)
Sequence (P04626 23-1255 S310F): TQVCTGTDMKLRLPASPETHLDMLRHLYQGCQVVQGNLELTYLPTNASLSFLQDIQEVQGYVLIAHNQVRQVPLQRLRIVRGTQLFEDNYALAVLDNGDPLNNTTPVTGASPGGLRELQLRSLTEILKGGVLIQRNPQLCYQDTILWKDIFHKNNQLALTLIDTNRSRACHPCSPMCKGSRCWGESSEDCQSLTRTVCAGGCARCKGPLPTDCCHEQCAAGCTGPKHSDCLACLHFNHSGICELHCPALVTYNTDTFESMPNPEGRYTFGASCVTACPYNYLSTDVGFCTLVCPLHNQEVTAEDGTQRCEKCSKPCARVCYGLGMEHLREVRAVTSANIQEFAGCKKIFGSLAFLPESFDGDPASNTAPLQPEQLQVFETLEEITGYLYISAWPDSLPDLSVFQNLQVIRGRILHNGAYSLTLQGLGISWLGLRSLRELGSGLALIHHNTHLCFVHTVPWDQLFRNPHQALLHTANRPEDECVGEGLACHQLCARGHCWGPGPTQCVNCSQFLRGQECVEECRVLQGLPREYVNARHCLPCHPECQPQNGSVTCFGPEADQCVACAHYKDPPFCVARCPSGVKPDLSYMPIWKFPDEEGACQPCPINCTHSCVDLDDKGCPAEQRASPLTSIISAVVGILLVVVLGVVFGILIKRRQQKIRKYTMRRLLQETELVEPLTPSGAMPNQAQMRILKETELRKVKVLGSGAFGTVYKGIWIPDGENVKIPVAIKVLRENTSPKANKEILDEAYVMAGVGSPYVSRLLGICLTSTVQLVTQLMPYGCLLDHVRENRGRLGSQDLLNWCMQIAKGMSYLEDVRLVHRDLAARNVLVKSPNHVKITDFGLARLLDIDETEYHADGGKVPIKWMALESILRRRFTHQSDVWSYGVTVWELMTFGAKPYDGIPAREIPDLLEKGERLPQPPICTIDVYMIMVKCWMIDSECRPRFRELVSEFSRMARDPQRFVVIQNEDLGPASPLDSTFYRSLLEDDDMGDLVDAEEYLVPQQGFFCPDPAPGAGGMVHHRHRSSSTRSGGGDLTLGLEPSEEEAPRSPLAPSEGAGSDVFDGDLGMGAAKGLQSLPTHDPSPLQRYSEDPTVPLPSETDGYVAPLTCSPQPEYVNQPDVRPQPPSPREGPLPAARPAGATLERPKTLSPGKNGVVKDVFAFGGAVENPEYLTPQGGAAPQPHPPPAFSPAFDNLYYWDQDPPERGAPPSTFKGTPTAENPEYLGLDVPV

>  <COMPOUND>
C=CC(=O)Nc1cc2c(Nc3cc(C)c(OCc4ccccn4)cc3F)ncnc2cc1OCCN1CCOCC1

>  <IC50>
50 to 100 nM

$$$$
>  <COMPOUND>
C=CC(=O)Nc1cc2c(Nc3ccc(OCc4cnccn4)c(Cl)c3)ncnc2cc1OCCN1CCN(C)CC1

>  <IC50>
20 to 30 nM

$$$$
>  <COMPOUND>
C=CC(=O)Nc1cc2c(Nc3ccc(OCc4ccccn4)c(Cl)c3)ncnc2cc1N1CCN2CCC1C2 (stereo not shown)

>  <IC50>
100 to 200 nM

$$$$

Then this compound:
Task: Which IC50 value belongs to C=CC(=O)Nc1cc2c(Nc3ccc(OCc4ccccn4)c(Cl)c3)ncnc2cc1OC[C@H]1COCCN1 ?
Result: 20 to 30 nM

---

target: UniProt P00533; test: Activity for inhibiting EGFR (Table A), EGFR WT; assay type: cell-based; settings: read-out: EGFR WT, potency code (IC50)
Quick reference for IC50 among some compounds

Worked examples, 3 compounds total:
>  <COMPOUND>
C=CC(=O)Nc1cc2c(Nc3ccc(OCc4cccc(C)n4)c(Cl)c3)ncnc2cc1OCCCN1CC(OC)C1

>  <RESULT>
100 to 200 nM

$$$$
>  <COMPOUND>
C=CC(=O)Nc1cc2c(Nc3ccc(OCc4ccccn4)c(Cl)c3)ncnc2cc1OCCN1CC2CN(C)CC2C1 (centres unmarked)

>  <RESULT>
100 to 200 nM

$$$$
>  <COMPOUND>
C=CC(=O)Nc1cc2c(Nc3ccc(OCc4ccccn4)c(Cl)c3)ncnc2cc1C#CC(C)(C)N1CCCC1

>  <RESULT>
500 to 1000 nM

$$$$

Task: Suppose we examine the compound C=CC(=O)Nc1cc2c(Nc3ccc(Oc4ccc(C)nc4)c(C)c3)ncnc2cc1C#C[C@@H]1[C@H]2CN(C)C[C@@H]12 ; what IC50 value has been reported?
Result: 20 to 30 nM

Task: Fill in: IC50 of C=CC(=O)Nc1cc2c(Nc3ccc(OCc4ccccn4)c(Cl)c3)ncnc2cc1C#CC1CCCN1 (centres unmarked) is ___
Result: 500 to 1000 nM

Task: Request the reported IC50 associated with COC/C=C/C(=O)Nc1cc2c(Nc3ccc(OCc4ccccn4)c(Cl)c3)ncnc2cc1OCCN1CCOCC1
Result: 300 to 500 nM

Task: Which IC50 reading was recorded for the compound CC#CC(=O)Nc1cc2c(Nc3ccc(OCc4ccncn4)c(Cl)c3)ncnc2cc1OCCCN1CCOCC1 ?
Result: 300 to 500 nM

Task: // IC50 lookup, key: C=CC(=O)Nc1cc2c(Nc3ccc(OCc4cccnn4)c(Cl)c3)ncnc2cc1OCCN1CCOCC1
Result: > 1000 nM

Task: Reported IC50, compound C=CC(=O)Nc1cc2c(Nc3ccc(OCc4ccccn4)c(Cl)c3)ncnc2cc1O[C@H]1CCCN(C)CC1 : ____
Result: 200 to 300 nM

Task: Using the record for C=CC(=O)Nc1cc2c(Nc3ccc(OCc4ccccn4)c(Cl)c3)ncnc2cc1N1CCN2CCC1C2 (centres unmarked) , report its IC50.
Result: > 1000 nM

Task: Can you look up the measured IC50 of C=CC(=O)Nc1cc2c(Nc3ccc(OCc4ccccn4)c(Cl)c3)ncnc2cc1OCCN(C)C for me?
Result: 200 to 300 nM

Task: Which IC50 is listed for C=CC(=O)Nc1cc2c(Nc3ccc(OCc4ccccn4)c(Cl)c3)ncnc2cc1OC1CN(C)C1 ?
Result: 500 to 1000 nM
